The origin of these recorded values is paper PMC8608967.

# melting point values compiled below

- MOLECULE: "NC(=O)CNCc1ccc(-c2ccc(C(F)(F)F)cc2)cc1 [Compound 17j]"
  REPORTED METRIC: "melting point"
  VALUE: "255 to 256 °C"
- MOLECULE: "CC(C)C[C@H](NCc1ccc(-c2cccc(C(F)(F)F)c2)cc1)C(N)=O [Compound 22i]"
  REPORTED METRIC: "melting point"
  VALUE: "239 to 243 °C"

For the molecule shown here, NC(=O)CNCc1ccc(-c2cccc(Cl)c2)cc1 [Compound 17f] , give the reported melting point. 165 to 168 °C

Could you share which melting point value was measured for C[C@H](NCc1ccc(-c2ccccc2F)cc1)C(N)=O [Compound 18b] ? 131 to 135 °C

Give its melting point value. Item: CCC(C)[C@H](NCc1ccc(-c2cccc(F)c2)cc1)C(N)=O (stereo partly drawn) [Compound 23c] 252 to 255 °C

Tell me the measured melting point of C[C@H](NCc1ccc(-c2ccccc2Cl)cc1)C(N)=O [Compound 18e] , please. 216 to 220 °C
